Reported melting point values for the following compounds.

Study these solved cases before continuing.
[[record]]
compound = "N#CC1CCn2cccc21 (stereo not drawn)"
quantity_name = "melting point"
result_value = "44 to 45 °C"

[[record]]
compound = "CCC1(C)CC(=O)C2(C)CCC3c4ccc(OC)cc4CCC3C12 (stereo not drawn)"
quantity_name = "melting point"
result_value = "104 to 107 °C"


// below: melting point requested for another compound
Request: Given the entry Cc1cc(C(=O)N2C(C)CCCC2C)ccc1[N+](=O)[O-] (stereo not drawn) , report its measured melting point.
Response: 99.7 to 100 °C

---

In this section we review reported melting point values for a set of compounds.

Here's what some known entries look like.
[[record]]
compound = "C[C@H](NC(=O)OCc1ccccc1)C(=O)N[C@@H](C)C(=O)NC1CCCCC1"
quantity_name = "melting point"
result_value = "233 to 234 °C"

[[record]]
compound = "O=C(O)C1Cc2cc3c(-c4ccc(F)cc4)noc3c(Cl)c2O1 (stereo unspecified)"
quantity_name = "melting point"
result_value = "225 to 226 °C"

[[record]]
compound = "CCOC(=O)CC1COc2c(OC)ccc(C(=O)Nc3ccccc3)c21 (stereo unspecified)"
quantity_name = "melting point"
result_value = "93 to 95 °C"

[[record]]
compound = "OCCc1ccc(-c2ccc(F)cc2F)c(F)c1"
quantity_name = "melting point"
result_value = "44 to 45 °C"


Request: // returns reported melting point for input O=C(NC1CN2CCC1CC2)c1cccc2oc(-c3ccccc3)nc12 (stereo unspecified)
Response: 77 to 80 °C

Request: For the compound shown here, CC(c1c[nH]cn1)c1cccc(C(=N)N)c1O (stereo unspecified) , give the reported melting point.
Response: 191 °C

Request: Fill in the blank: the reported melting point of `CNc1nc(-c2cccc(NC(=O)C3CC3)c2)c2cc(OC)c(OC)cc2n1` is ____.
Response: 205 to 207 °C

Request: Query (compound): `CCOC(=O)c1cc(=O)c2ccc(OC(=S)N(C)C)cc2o1` ; field requested: melting point
Response: 160 to 161 °C

Request: I have this compound here, `Cc1c(F)cccc1Cc1c(-c2ccccc2)c2ccccn2c1C(=O)N1CCN(C(=O)OC(C)(C)C)CC1` , and I need its recorded melting point.
Response: 263 °C

Request: Look up melting point for this compound: `O=[N+]([O-])c1cnc(-c2ccccc2)nc1Cl`
Response: 160 to 161 °C
